Just for reference, PubChem BioAssay (NCI) is where these values come from.

Tested on: MDA-MB-231 breast
protocol_description: NCI tumour cell line growth inhibition, 48 h
endpoint_label: TGI

Reference set, count: 3
OCC(O)C(O)C(O)C(O)c1nc2ccc(Cl)cc2[nH]1 (centres undefined) :: > 100 µM
N#C/C(=C\c1ccsc1)c1nc2ccccc2o1 :: > 100 µM
C#CC#CC#CC#CC#CC#CC#CC#CCC1OCC(COC(=O)O[C@@H](C(=O)O[C@H]2C[C@@]3(O)[C@@H](OC(=O)c4ccccc4)[C@@H]4[C@]5(OC(C)=O)CO[C@@H]5C[C@H](O)[C@@]4(C)C(=O)[C@H](OC(C)=O)C(=C2C)C3(C)C)[C@@H](NC(=O)c2ccccc2)c2ccccc2)O1 (some centres undefined) :: > 33.3 µM

Now take the following compound into account.
Input line: Item CN(C)c1ccc(/C(F)=C(F)/C(F)=C(F)/C(F)=C(\F)c2ccc(Br)cc2)cc1 has what recorded TGI?
Output line: > 100 µM

----------
System: SNB-75 CNS
protocol_description: NCI tumour cell line growth inhibition, 48 h
# reported TGI; entries follow
Write it as a number; the unit µM goes unstated.

Cc1ccc([S@](=O)c2occc2C=O)cc1 :: 30.9
Cc1cc(NCCCN(C)C)c2ccc3c(ccc4c(NCCCN(C)C)cc(C)nc43)c2n1 :: 0.42
COc1cc2ccc(=O)oc2cc1O :: 175
CC(=O)Oc1cc2c(cc1OC(C)=O)OCC(c1ccc(C)cc1)C2 (stereo unspecified) :: 32.3
CCCCOC(=O)N1CCN(/[N+]([O-])=N/Oc2ccc([N+](=O)[O-])cc2[N+](=O)[O-])CC1 :: 37.9

Input line: Item CN(C)c1ccc(/C(F)=C(F)/C(F)=C(F)/C(F)=C(\F)c2ccc(Br)cc2)cc1 has what recorded TGI?
Output line: 92.9

----------
Test system: MCF7 breast
protocol_description: NCI tumour cell line growth inhibition, 48 h
endpoint_label: TGI

Input line: Item NC(=O)N/N=C1/CCC(O)CC1CC(=O)O (stereo unspecified) has what recorded TGI?
Output line: > 100 µM

Input line: Item CN(C)c1nc(N)nc(CS)n1 has what recorded TGI?
Output line: > 100 µM

Input line: Item CC(NC(=O)C(NC(=O)CNC(=O)OC(C)(C)C)C(C)C)C(=O)Oc1c(Cl)c(Cl)c(Cl)c(Cl)c1Cl (stereo unspecified) has what recorded TGI?
Output line: 74.1 µM

Input line: Item CN1CCN(C(=O)C(C)(C)c2ccc(C(=O)Nc3cn4cc(-c5ccncc5)ccc4n3)cc2)CC1 has what recorded TGI?
Output line: > 100 µM

Input line: Item COc1cc2nc(N3CCCC3)nc(NCc3ccccc3)c2cc1OC has what recorded TGI?
Output line: 4.21 µM

Input line: Item CC1CCCC2(CC[N+](C)(CCC[N+](C)(C)C)CC2)C1 (stereo unspecified) has what recorded TGI?
Output line: > 100 µM

Input line: Item ClCCCc1ccccc1C1=NCCc2ccccc21 has what recorded TGI?
Output line: > 100 µM

----------
Test system: SK-MEL-5 melanoma
protocol_description: NCI tumour cell line growth inhibition, 48 h
endpoint_label: TGI

Reference set, count: 2
CC(C)=NN/C(=N\S(=O)(=O)c1ccc(Oc2cccc(Cl)c2C#N)cc1)Nc1ccc(Cl)cc1 :: > 100 µM
c1cncc(C2N3CCCCC3[C@@H]3c4[nH]c5ccccc5c4CCN23)c1 (stereo partly drawn) :: > 100 µM

Input line: Item O=c1cnn(C2OC(CO)C(O)C2O)c(=S)[nH]1 (stereo not drawn) has what recorded TGI?
Output line: > 100 µM

----------
System: SNB-75 CNS
protocol_description: NCI tumour cell line growth inhibition, 48 h
endpoint_label: TGI

Reference set, count: 2
OC1(C23CC4CC(CC(C4)C2)C3)CSCC1(O)C12CC3CC(CC(C3)C1)C2 (stereo not drawn) :: > 100 µM
COc1cccc(N2C(=O)C3c4[nH]c5ccccc5c4C4CCCC4C3C2=O)c1 (stereo not drawn) :: 5.77 µM

Now take the following compound into account.
Input line: Item Cc1ccc2c(=O)cc(-c3ccc(Cl)s3)[nH]c2n1 has what recorded TGI?
Output line: > 27.9 µM

----------
Test system: SK-MEL-5 melanoma
protocol_description: NCI tumour cell line growth inhibition, 48 h
# reported TGI; entries follow

COC(OC)[C@@H]1OC[C@H](n2cnc3c(N)ncnc32)[C@H]1O :: > 100 µM
COC(=O)C1(Cc2ccc3c(c2)CCC3)Cc2ccccc2C1O (stereo not drawn) :: 29.8 µM
COc1ccc(CC(N)c2ccc(OC)cc2)cc1 (stereo not drawn) :: > 100 µM
Cc1cc2c(C(C)C)c(O)c(O)cc2c(O)c1-c1c(C)cc2c(C(C)C)c(O)c(O)cc2c1O :: 26 µM

Input line: Return TGI measured with SK-MEL-5 melanoma given this compound: N/N=C(/C(=O)Nc1cccc(Cl)c1)C(C(=O)c1ccc(O)cc1O)C1OC(=O)c2ccccc21 (stereo not drawn)
Output line: > 100 µM

Input line: Return TGI measured with SK-MEL-5 melanoma given this compound: COC(C(=O)NN)c1ccccc1 (stereo not drawn)
Output line: > 100 µM

Input line: Return TGI measured with SK-MEL-5 melanoma given this compound: O=C1CCCCC1S(=O)(=O)c1ccccc1 (stereo not drawn)
Output line: > 100 µM

Input line: Return TGI measured with SK-MEL-5 melanoma given this compound: CC1CCC/C1=C(/I)C(=O)c1ccccc1 (stereo not drawn)
Output line: 69.5 µM

----------
# reported GI50; entries follow
Test system: OVCAR-4 ovarian
protocol_description: NCI tumour cell line growth inhibition, 48 h

O=C(Nc1ccc(Br)cc1F)c1cc(I)ccc1O :: 3.16 µM

Input line: Item O=C(/C=C/Sc1cc(C(F)(F)F)cc(C(F)(F)F)c1)c1ccc(Cl)cc1 has what recorded GI50?
Output line: 13.5 µM

Input line: Item Cn1ncnc1[C@H]1c2n[nH]c(=O)c3cc(F)cc(c23)N[C@@H]1c1ccc(F)cc1 has what recorded GI50?
Output line: 14.6 µM

Input line: Item N#C/C(=C\c1ccsc1)c1nc2ccccc2o1 has what recorded GI50?
Output line: > 100 µM

Input line: Item Nc1ncnc2c1N=C(c1ccc3c(c1)OCO3)CC(c1ccc([N+](=O)[O-])cc1)N2 (stereo not given) has what recorded GI50?
Output line: > 100 µM

----------
Tested on: LOX IMVI melanoma
protocol_description: NCI tumour cell line growth inhibition, 48 h
# reported TGI; entries follow

Reference set, count: 2
OCCO/N=C1\C(c2c(O)[nH]c3ccccc23)=Nc2ccccc21 :: > 100 µM
CCOC(=O)c1nc2ccc(C(F)(F)F)cc2nc1Oc1cc(OC)c(OC)c(OC)c1 :: > 100 µM

Input line: Item C=CCN=C(N/N=C/c1ccc([N+](=O)[O-])o1)NS(=O)(=O)c1cc(C(=O)Nc2ccc(Cl)cc2)c(Cl)cc1SC has what recorded TGI?
Output line: > 100 µM

Input line: Item N/N=C(/C(=O)Nc1cccc(Cl)c1)C(C(=O)c1ccc(O)cc1O)C1OC(=O)c2ccccc21 (stereo not given) has what recorded TGI?
Output line: > 100 µM

Input line: Item C=Cc1cncc(C#N)c1CCc1c(C#N)cncc1C=C has what recorded TGI?
Output line: > 100 µM

Input line: Item COC(=O)c1cc(=O)[nH]c(=O)[nH]1 has what recorded TGI?
Output line: > 100 µM

Input line: Item O=S(=O)(c1ccc(NC2=NC(c3ccc(O)cc3)(c3ccccc3O)c3ccccc32)cc1)c1ccc(NC2=NC(c3ccc(O)cc3)(c3ccccc3O)c3ccccc32)cc1 (stereo not given) has what recorded TGI?
Output line: > 100 µM

Input line: Item O=C(C/C(=N/O)C(=O)NC1=C(Cl)C(=O)c2ccccc2C1=O)CC(c1ccccc1)c1c(O)c2ccccc2oc1=O (stereo not given) has what recorded TGI?
Output line: > 100 µM

Input line: Item NC(=O)NNc1nc(-c2ccccc2)cs1 has what recorded TGI?
Output line: > 100 µM

Input line: Item CO/N=C1\CC(NC(=O)CNC(=O)OC(C)(C)C)c2ccsc21 (stereo not given) has what recorded TGI?
Output line: > 100 µM

Input line: Item C=C1C(O)C2C(=C(CC)C13CC3)C(=O)C(C)(C)C2OC (stereo not given) has what recorded TGI?
Output line: > 100 µM

Input line: Item COc1cc2c(cc1OC)[C@H](C)N1CCc3cc(OC)c(OC)cc3[C@@H]1C2 has what recorded TGI?
Output line: > 100 µM

Input line: Item CCCCCCCCCCCCCCCC(=O)OCC1OC(n2cc(F)c(=O)[nH]c2=O)C(N)C(O)C1O (stereo not given) has what recorded TGI?
Output line: 33.1 µM

Input line: Item O=C1C(Nc2ccc(Cl)cc2)=C(I)C(=O)c2ncccc21 has what recorded TGI?
Output line: 2.11 µM

Input line: Item CCCC(=O)NC(Nc1ccc(S(=O)(=O)Nc2cc(C)on2)cc1)(C(=O)OCC)C(F)(F)F (stereo not given) has what recorded TGI?
Output line: > 100 µM

Input line: Item O=C(NCCCCCCCCCCCCNC(=O)Nc1cccc2ccccc12)Nc1cccc2ccccc12 has what recorded TGI?
Output line: 34.2 µM

Input line: Item CC(=O)[CH-]C(=O)c1ccccc1.CC(=O)[CH-]C(=O)c1ccccc1.CC[O-].CC[O-].[Hf+4] has what recorded TGI?
Output line: > 100 µM

Input line: Item COc1cc2ccc(=O)oc2cc1O has what recorded TGI?
Output line: > 625 µM

Input line: Item CC1CCCC2(CC[N+](C)(CCC[N+](C)(C)C)CC2)C1 (stereo not given) has what recorded TGI?
Output line: > 100 µM

Input line: Item Cc1ccc2c(c1)-c1c3c(nn1-c1ccccc1)-c1ccccc1SC3O2 (stereo not given) has what recorded TGI?
Output line: > 100 µM
